Assay explanation: qHTS assay to identify small molecule antagonists of the progesterone receptor (PR) signaling pathway - cell viability counter screen (AID 1346798);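 also: HEK293T PR-UAS-bla cells stimulated with the agonist R5020; nearly all actives have a fitted effect of over 50% in size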
Experimental parameters: PR-UAS-bla HEK293T viability, CellTiter-Glo luminescence, 16 h; series mostly up to 92.4 µM
Inconclusive results are not listed. Activity calls are given as the source filed them. Calls follow the shape of the dose curve; as a rule, active = well fitted cell-killing curve with a large enough effect in the repeat runs; inconclusive = weak or mixed curves, or effect the other way; inactive = no such curve, though single readings can be large or run the other way.
Allowed answers: y = active, n = inactive

In: Hello, I am checking results. What call was entered for O=C(Nc1ccccc1)OCC(CN1CCCCC1)OC(=O)Nc1ccccc1 (configuration not stated) ?
Out: n

###

Assay explanation: qHTS RealTime-Glo MT Cell Viability Assay in HEK293 cells - 16 hour (AID 1224872); also: top concentration of the series differs between compounds; nearly all actives have a fitted effect of over 50% in size
Experimental parameters: RealTime-Glo luminescence; series mostly up to 76.8 µM
Records with an inconclusive call do not appear. Calls of active or inactive are those of the source. Calls come from the whole dose curve; as a rule, active = well fitted cell-killing curve with a large enough effect in the repeat runs; inconclusive = weak or mixed curves, or effect the other way; inactive = flat fitted curve, though single readings scatter.
Measure name: outcome

* CN1CCN(C2=Nc3cc(Cl)ccc3Nc3ccccc32)CC1 | inactive
* COc1ccc(C(C)=O)cc1 | inactive
* CC(=O)N(O)CCCCCNC(=O)CCC(=O)N(O)CCCCCNC(=O)CCC(=O)N(O)CCCCCN | inactive
* NCCCN(CCO)CCO | inactive
* CCCCCCCCCO | inactive
* CN(C)CCCOc1nn(Cc2ccccc2)c2ccccc12 | inactive
* CC(=O)c1ccc2c(c1)[C@H](NC(=O)c1ccc(F)cc1)[C@@H](O)C(C)(C)O2 | inactive
* Cn1c(NCCN(CCO)CCCc2ccc([N+](=O)[O-])cc2)cc(=O)n(C)c1=O | inactive
* CN(C)CC/C=C1\c2ccccc2COc2ccccc21 | inactive
* N=C(N=C(N)N)N1CCOCC1 | inactive

Need outcome for each of these compounds.
1. CC(C(=O)O)c1ccc(C(=O)c2ccccc2)s1 (configuration not stated)
2. CCOc1ccc2[nH]cc(C(=O)NCc3ccccc3)c(=O)c2n1
3. N[C@H]1C(O)O[C@H](CO)[C@H](O)[C@@H]1O (some centres not stated)
4. CC(=O)Nc1ccc(/C=N/NC(N)=S)cc1
5. OC(CCN1CCCCC1)(c1ccccc1)C1CCCCC1 (configuration not stated)
6. O=C(NS(=O)(=O)/C=C/c1cccs1)c1ccc(F)cc1Br
7. C=C(C)C(=O)OCCOc1ccccc1
8. O=C(CC(=O)c1ccccc1)c1ccccc1

Out:
["inactive", "inactive", "inactive", "inactive", "inactive", "inactive", "inactive", "inactive"]

###

Assay explanation: qHTS RealTime-Glo MT Cell Viability Assay in HEK293 cells - 24 hour (AID 1224886); also: nearly all actives have a fitted effect of over 50% in size
Experimental parameters: RealTime-Glo luminescence; series mostly up to 76.8 µM
Results filed as inconclusive are left out. Activity calls are given as the source filed them. Calls come from the whole dose curve; as a rule, active = well fitted cell-killing curve with a large enough effect in the repeat runs; inconclusive = weak or mixed curves, or effect the other way; inactive = flat fitted curve, though single readings scatter.
Allowed answers: class 1 (active), class 0 (inactive)

* CCCCCCCCN(C)C | class 0
* COc1ccc(C(C)=O)cc1 | class 0
* Cc1cc(O)ccc1N | class 1
* N=C(N=C(N)N)N1CCOCC1 | class 0
* CC(=O)SCc1ccco1 | class 0

In: Hello, I am checking results. What call was entered for CCN(CC)CCOc1ccc2c(c1)C(=O)c1cc(OCCN(CC)CC)ccc1-2 ?
Out: class 1

In: Hello, I am checking results. What call was entered for C=Cc1c(C)c2cc3[nH]c(cc4nc(cc5nc(cc1[nH]2)C(C)=C5CCC(=O)O)C(CCC(=O)O)=C4C)c(C)c3C=C ?
Out: class 0
